biological target: HEP3D (Homo sapiens); experiment: Radioligand binding, hEP3D; conditions: competition vs 5 nM [3H]-PGE2
Sequence (P43115 1-374 isoform P43115-4): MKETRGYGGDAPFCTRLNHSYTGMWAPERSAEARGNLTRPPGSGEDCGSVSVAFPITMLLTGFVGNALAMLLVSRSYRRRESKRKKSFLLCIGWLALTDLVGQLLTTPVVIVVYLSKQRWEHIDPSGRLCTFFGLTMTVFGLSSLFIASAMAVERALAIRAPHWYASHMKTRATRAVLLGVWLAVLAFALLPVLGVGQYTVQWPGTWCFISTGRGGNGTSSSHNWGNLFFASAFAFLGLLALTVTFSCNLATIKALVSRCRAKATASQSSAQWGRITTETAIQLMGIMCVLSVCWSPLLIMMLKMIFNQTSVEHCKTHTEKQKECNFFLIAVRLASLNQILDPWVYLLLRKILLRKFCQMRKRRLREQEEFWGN
quantity: IC50
Note: a bare number is incomplete; add the unit.

Name the reported IC50 value associated with the compound O=C(O)CCC/C=C\C[C@H]1C(=O)C(O)C[C@@H]1/C=C/C(O)CCc1sc2ccccc2c1Cl (single isomer, unassigned) [Compound 9L]
8.7 µM

* * *

target: EP4 receptors (Homo sapiens)
Sequence (P35408 whole entry): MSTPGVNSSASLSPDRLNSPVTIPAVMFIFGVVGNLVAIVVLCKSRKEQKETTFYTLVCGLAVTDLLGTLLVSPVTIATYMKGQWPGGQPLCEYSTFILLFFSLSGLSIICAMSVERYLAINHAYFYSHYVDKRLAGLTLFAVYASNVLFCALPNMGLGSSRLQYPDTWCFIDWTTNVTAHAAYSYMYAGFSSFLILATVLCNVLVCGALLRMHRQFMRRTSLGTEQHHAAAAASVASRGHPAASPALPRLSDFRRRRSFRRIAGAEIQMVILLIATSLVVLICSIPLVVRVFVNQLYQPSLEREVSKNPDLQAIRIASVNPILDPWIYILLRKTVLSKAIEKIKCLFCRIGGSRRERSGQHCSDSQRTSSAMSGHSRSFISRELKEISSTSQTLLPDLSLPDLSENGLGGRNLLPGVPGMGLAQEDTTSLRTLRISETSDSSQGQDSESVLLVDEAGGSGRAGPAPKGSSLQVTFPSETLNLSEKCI
quantity: IC50
Note: a bare number is incomplete; add the unit.

Report IC50 for O=C(O)CCC/C=C\C[C@H]1C(=O)C(O)C[C@@H]1/C=C/C(O)CCc1sc2ccccc2c1Cl (single isomer, unassigned) tested on EP4 receptors (Homo sapiens).
200 nM

Entry source: patent US7652063B2
